The compounds listed here are annotated with their Ke.
# study-system: Opioid receptors; mu/kappa/delta (Homo sapiens, UniProt P41145+P41143+P35372)
# Sequence (P35372 whole entry, looked up): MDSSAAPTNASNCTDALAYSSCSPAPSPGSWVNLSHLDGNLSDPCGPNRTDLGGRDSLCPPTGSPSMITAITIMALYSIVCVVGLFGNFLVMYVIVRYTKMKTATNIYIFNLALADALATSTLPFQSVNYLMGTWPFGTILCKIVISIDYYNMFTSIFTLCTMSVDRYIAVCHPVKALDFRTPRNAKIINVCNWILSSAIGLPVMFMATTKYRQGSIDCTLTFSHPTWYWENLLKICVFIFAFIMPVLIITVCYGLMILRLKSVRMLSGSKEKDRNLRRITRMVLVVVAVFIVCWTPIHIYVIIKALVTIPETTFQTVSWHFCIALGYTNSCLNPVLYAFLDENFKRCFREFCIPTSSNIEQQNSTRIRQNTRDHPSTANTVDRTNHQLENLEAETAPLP
# Sequence (P41143 whole entry, looked up): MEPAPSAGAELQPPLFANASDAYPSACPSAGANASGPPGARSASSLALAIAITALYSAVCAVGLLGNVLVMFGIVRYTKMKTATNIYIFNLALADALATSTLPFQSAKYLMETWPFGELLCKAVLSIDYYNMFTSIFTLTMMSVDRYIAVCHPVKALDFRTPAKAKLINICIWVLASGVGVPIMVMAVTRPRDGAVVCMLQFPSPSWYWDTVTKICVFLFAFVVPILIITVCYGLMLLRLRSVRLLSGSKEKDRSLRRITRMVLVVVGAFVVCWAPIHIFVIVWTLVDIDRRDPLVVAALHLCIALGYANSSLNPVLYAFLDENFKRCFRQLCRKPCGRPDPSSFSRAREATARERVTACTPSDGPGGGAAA
# Sequence (P41145 whole entry, looked up): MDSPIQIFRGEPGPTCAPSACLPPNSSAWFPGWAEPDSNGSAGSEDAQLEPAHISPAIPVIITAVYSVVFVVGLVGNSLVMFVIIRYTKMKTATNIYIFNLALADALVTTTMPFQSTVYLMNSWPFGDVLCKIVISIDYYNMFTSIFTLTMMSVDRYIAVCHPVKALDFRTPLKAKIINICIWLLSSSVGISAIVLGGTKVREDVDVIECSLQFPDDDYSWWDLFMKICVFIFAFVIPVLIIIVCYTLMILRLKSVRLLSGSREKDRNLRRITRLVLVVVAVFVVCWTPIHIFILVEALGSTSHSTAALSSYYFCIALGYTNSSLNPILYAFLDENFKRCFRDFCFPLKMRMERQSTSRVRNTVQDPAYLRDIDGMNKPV
# condition-info: Cavia porcellus; Ileum
# Description: Opioid receptors antagonist activity in smooth-muscle tissue of guinea pig ileum (GPI) in presence of NLX
Positions of bridges follow the written chain, without caps; N, C: chain ends. Residues, ends and D or L forms follow the SMILES beside them.

Use the examples below as a reference point.
[[record]]
compound = "CC(C)C[C@@H]1NC(=O)[C@H](CCCCN)NC(=O)[C@@H]2CCCN2C(=O)[C@H](CCCN=C(N)N)NC(=O)[C@@H](NC(=O)[C@H](CCCN=C(N)N)NC(=O)[C@H](CCCN=C(N)N)NC(=O)[C@H](CC(C)C)NC(=O)[C@H](Cc2ccccc2)NC(=O)CNC(=O)CNC(=O)[C@@H](N)Cc2ccc(O)cc2)CSSC[C@@H](C(N)=O)NC1=O"
reported_measurement = "38.9 nM"

[[record]]
compound = "CC[C@H](C)[C@H](NC(=O)[C@H](CCCN=C(N)N)NC(=O)[C@H](CCCN=C(N)N)NC(=O)[C@H](CC(C)C)NC(=O)[C@H](Cc1ccccc1)NC(=O)CNC(=O)CNC(=O)[C@@H](N)Cc1ccc(O)cc1)C(=O)N[C@@H](CCCN=C(N)N)C(=O)N1CCC[C@H]1C(=O)N[C@@H](CCCCN)C(=O)N[C@@H](CC(C)C)C(=O)N[C@@H](CCCCN)C(N)=O"
reported_measurement = "82 nM"

[[record]]
compound = "CC(C)C[C@H](NC(=O)[C@H](Cc1ccccc1)NC(=O)CNC(=O)CNC(=O)[C@@H](N)Cc1ccc(O)cc1)C(=O)N[C@@H](CCCN=C(N)N)C(=O)N[C@@H](CCCN=C(N)N)C(=O)N[C@@H]1CSSC[C@H](C(N)=O)NC(=O)[C@H](CC(C)C)NC(=O)[C@H](CCCCN)NC(=O)[C@@H]2CCCN2C(=O)[C@H](CCCN=C(N)N)NC1=O"
reported_measurement = "233 nM"


Quick note, Ke for CC(C)C[C@@H]1NC(=O)[C@H](CCCCN)NC(=O)[C@@H]2CCCN2C(=O)[C@H](CCCN=C(N)N)NC(=O)[C@H](NC(=O)[C@H](CCCN=C(N)N)NC(=O)[C@H](CCCN=C(N)N)NC(=O)[C@H](CC(C)C)NC(=O)[C@H](Cc2ccccc2)NC(=O)CNC(=O)CNC(=O)[C@@H](N)Cc2ccc(O)cc2)CSSC[C@@H](C(N)=O)NC1=O landed at 32.3 nM

Quick note, Ke for CC[C@H](C)[C@@H]1NC(=O)[C@H](CCCN=C(N)N)NC(=O)[C@H](CCCN=C(N)N)NC(=O)[C@@H](NC(=O)[C@H](Cc2ccccc2)NC(=O)CNC(=O)CNC(=O)[C@@H](N)Cc2ccc(O)cc2)CSSC[C@@H](C(N)=O)NC(=O)[C@@H]2CCCN2C(=O)[C@H](CCCN=C(N)N)NC1=O (H-YGGFCRRIRPC-NH2; disulfide 5-11) landed at 66.7 nM
